Please provide measured viability at 24 h, 100 µM for the entries that follow.
- assay.summary: Cytotoxicity against human SH-SY5Y cells assessed as cell survival at 100 uM after 24 hrs by MTT assay relative to control
- Format: cell-based
- condition.summary: read-out: Survival
Numbers only, in %.

- smiles.string: "CS(=O)(=O)Nc1ccc(/C=C/c2ccc3c(c2)OCO3)cc1"
  viability at 24 h, 100 µM / %: 72.5

Batch request: viability at 24 h, 100 µM per item, same order as input.
1. COc1ccc(OCC#Cc2ccc3c(c2)OCO3)cc1
2. C(#Cc1cccs1)c1ccc2c(c1)OCO2
3. CC(=O)Nc1cccc(C#Cc2ccc3c(c2)OCO3)c1
4. CC(C)C(=O)Nc1ccc(/C=C/c2ccc3c(c2)OCO3)cc1
5. Nc1ccc(/C=C/c2ccc3c(c2)OCO3)cc1
6. COc1ccc(C#Cc2cc(C(F)(F)F)cc(C(F)(F)F)c2)cc1

Reply text:
44.1
43.9
70.6
50.9
47.6
28.6

----------
- assay.summary: Cytotoxicity against human SH-SY5Y cells assessed as cell survival at 1000 uM after 24 hrs by MTT assay relative to control
- Assay type: cell-based
- condition.summary: read-out: Survival
Could you mark each record yes (1) if its viability at 24 h, 1000 µM falls strictly under 40%, and no (0) if it equals or exceeds it?

// below: answered compounds
- compound: "CCC(=O)Nc1ccc(/C=C/c2ccc3c(c2)OCO3)cc1"
  qualitative.label: "no (0)"
- compound: "COc1ccc(/C=C/c2ccc3c(c2)OCO3)cc1"
  qualitative.label: "no (0)"
- compound: "CC(C)C(=O)Nc1ccc(/C=C/c2ccc3c(c2)OCO3)cc1"
  qualitative.label: "no (0)"

Inquiry: Does COc1cccc(/C=C/c2ccc3c(c2)OCO3)c1 have viability at 24 h, 1000 µM strictly under 40%?
Reply text: yes (1)

Inquiry: Does COc1cc(/C=C/c2ccc(O)cc2)cc(OC)c1 [PTEROSTILBENE] have viability at 24 h, 1000 µM strictly under 40%?
Reply text: no (0)

Inquiry: Does O=C(Nc1ccc(/C=C/c2ccc3c(c2)OCO3)cc1)c1ccccc1 have viability at 24 h, 1000 µM strictly under 40%?
Reply text: no (0)

Inquiry: Does COc1ccc(/C=C/c2ccc(O)cc2)cc1OC have viability at 24 h, 1000 µM strictly under 40%?
Reply text: yes (1)

Inquiry: Does COc1cc(/C=C/C(=O)c2ccc3c(c2)OCO3)ccc1O have viability at 24 h, 1000 µM strictly under 40%?
Reply text: yes (1)

----------
Please provide measured viability at 24 h, 1000 µM for the entries that follow.
- assay.summary: Cytotoxicity against human SH-SY5Y cells assessed as cell survival at 1000 uM after 24 hrs by MTT assay relative to control
- Format: cell-based
- condition.summary: read-out: Survival
Answers are plain numbers, in %.

- smiles.string: "Oc1ccc(/C=C/c2cccc(OC(F)(F)F)c2)cc1"
  viability at 24 h, 1000 µM (%): 5.06
- smiles.string: "CC(=O)Nc1cccc(C#Cc2ccc3c(c2)OCO3)c1"
  viability at 24 h, 1000 µM (%): 55.3
- smiles.string: "C(#Cc1ccc2c(c1)OCO2)c1ccsc1"
  viability at 24 h, 1000 µM (%): 21
- smiles.string: "COc1ccc(OCC#Cc2ccc3c(c2)OCO3)cc1"
  viability at 24 h, 1000 µM (%): 36.3
- smiles.string: "N#Cc1ccc(/C=C/c2ccc3c(c2)OCO3)cc1"
  viability at 24 h, 1000 µM (%): 36.1

Batch request: viability at 24 h, 1000 µM per item, same order as input.
1. COc1ccc(/C=C/c2ccc(N)c(F)c2)cc1
2. CC(=O)Nc1ccc(/C=C/c2ccc3c(c2)OCO3)cc1
3. CC(=O)Oc1ccc(/C=C/c2cc(C)cc(C)c2)cc1
4. CCCCCOc1ccc(C#Cc2ccc3c(c2)OCO3)cc1
5. COc1cc(/C=C/c2ccc(O)cc2)cc(OC)c1OC
6. COc1cc(/C=C/c2ccc(OC(C)=O)cc2)cc(OC)c1
7. CC(=O)Nc1ccc(/C=C/c2ccc3c(c2)OCO3)cc1F

Reply text:
1. 47.8
2. 80.4
3. 18.4
4. 15.3
5. 21.2
6. 6.75
7. 75.1

Batch request: viability at 24 h, 1000 µM per item, same order as input.
1. CC(=O)Nc1ccc(C#Cc2ccc3c(c2)OCO3)cc1
2. COc1ccc(C(=O)/C=C/c2ccc3c(c2)OCO3)c(O)c1
3. CN(C)c1ccc(/C=C/c2ccc3c(c2)OCO3)cc1

Reply text:
1. 35.2
2. 49.3
3. 52.6

----------
- assay.summary: Cytotoxicity against human SH-SY5Y cells assessed as cell survival at 1000 uM after 24 hrs by MTT assay relative to control
- Assay type: cell-based
- condition.summary: read-out: Survival
Could you mark each record 1 if its viability at 24 h, 1000 µM falls strictly under 20%, and 0 if it equals or exceeds it?

- smiles.string: "CCCCCc1ccc(C#Cc2ccc(OCc3ccccc3)cc2)cc1"
  qualitative.label: 0
- smiles.string: "COc1ccc(C#Cc2ccc3c(c2)OCO3)cc1"
  qualitative.label: 0

Inquiry: Does C(=C\c1ccc2c(c1)OCO2)/c1ccncc1 have viability at 24 h, 1000 µM strictly under 20%?
Reply text: 1

Inquiry: Does COc1ccc(/C=C/c2cccc(C#N)c2)cc1 have viability at 24 h, 1000 µM strictly under 20%?
Reply text: 0

Inquiry: Does COc1ccc(/C=C/c2ccc(NC(C)=O)cc2)cc1 have viability at 24 h, 1000 µM strictly under 20%?
Reply text: 0

Inquiry: Does CC(=O)Oc1ccc(/C=C/c2ccc3c(c2)OCO3)cc1 have viability at 24 h, 1000 µM strictly under 20%?
Reply text: 1

Inquiry: Does Cc1ccc(C#Cc2ccc(OCc3ccccc3)cc2)cc1 have viability at 24 h, 1000 µM strictly under 20%?
Reply text: 0

----------
Please provide measured viability at 24 h, 100 µM for the entries that follow.
- assay.summary: Cytotoxicity against human SH-SY5Y cells assessed as cell survival at 100 uM after 24 hrs by MTT assay relative to control
- Type: cell-based
- condition.summary: read-out: Survival
One number for each entry, in %.

Batch request: viability at 24 h, 100 µM per item, same order as input.
1. Cc1ccc(C#Cc2ccc(OCc3ccccc3)cc2)cc1
2. CC(=O)Nc1ccc(CCc2ccc3c(c2)OCO3)cc1
3. COc1ccc(/C=C/c2cccc(OC(F)(F)F)c2)cc1
4. COc1ccc(/C=C/c2ccc(Cl)cc2)cc1OC
5. CCCC(=O)Nc1ccc(/C=C/c2ccc3c(c2)OCO3)cc1
6. COc1cccc(/C=C/c2ccc(NC(C)=O)cc2)c1
7. COc1cc(/C=C/c2ccc3c(c2)OCO3)cc(OC)c1

Reply text:
[94.2, 90.3, 40.2, 57.3, 58.8, 44.5, 74]

----------
- assay.summary: Cytotoxicity against human SH-SY5Y cells assessed as cell survival at 1000 uM after 24 hrs by MTT assay relative to control
- Assay type: cell-based
- condition.summary: read-out: Survival
Please provide measured viability at 24 h, 1000 µM for the entries that follow.
One number for each entry, in %.

Batch request: viability at 24 h, 1000 µM per item, same order as input.
1. O=C(Nc1ccc(/C=C/c2ccc3c(c2)OCO3)cc1)C1CC1
2. CC(=O)Nc1cccc(/C=C/c2ccc3c(c2)OCO3)c1
3. CC(=O)N(C)c1ccc(/C=C/c2ccc3c(c2)OCO3)cc1
4. CC(=O)c1ccc(/C=C/c2ccc(O)cc2)cc1
5. CC(=O)Nc1ccc(CCc2ccc3c(c2)OCO3)cc1
6. CS(=O)(=O)Nc1ccc(/C=C/c2ccc3c(c2)OCO3)cc1

Reply text:
1. 85.3
2. 2.7
3. 5.89
4. 24.6
5. 68.8
6. 62.3

Inquiry: # input compound: COc1ccccc1/C=C/c1ccc2c(c1)OCO2 ; wanted: its viability at 24 h, 1000 µM
Reply text: 23.6

----------
- assay.summary: Cytotoxicity against human SH-SY5Y cells assessed as cell survival at 100 uM after 24 hrs by MTT assay relative to control
- Type: cell-based
- condition.summary: read-out: Survival
recorded.metric: viability at 24 h, 100 µM (%)
One number for each entry, in %.

Some entries whose results are on file:
- smiles.string: "Oc1ccc(/C=C/c2ccc3c(c2)OCCO3)cc1"
  viability at 24 h, 100 µM [%]: 2.8
- smiles.string: "COc1cc(/C=C/c2ccc(NC(C)=O)cc2)cc(OC)c1"
  viability at 24 h, 100 µM [%]: 54.5
- smiles.string: "CCC(=O)Nc1ccc(/C=C/c2ccc3c(c2)OCO3)cc1"
  viability at 24 h, 100 µM [%]: 85.9

Batch request: viability at 24 h, 100 µM per item, same order as input.
1. CN(C)c1ccc(/C=C/C(=O)c2ccc3c(c2)OCO3)cc1
2. COc1ccc(/C=C/c2cccc(C#N)c2)cc1
3. COc1ccc(/C=C/c2ccc(NC(C)=O)c(F)c2)cc1

Reply text:
1. 49.8
2. 66.3
3. 14.2
